Below is a list of entries, each paired with its recorded inhibition at 100 µM value.
Test system: HCT116 cells
Experiment: Whole cell cytotoxicity assay: Sulforhodamine B
Type: cell-based
Settings: Homo sapiens, HCT-116; 100 μM compound; 48 hours incubation with drug; Sulforhodamine B staining; read-out: % Inhibition of HCT116 cell growth @ 100 μM
outcomeMeasure: inhibition at 100 µM (%)

[[record]]
compound = "O=C(CCc1cnc(N2CCc3c([nH]c4ccccc34)C2)nc1)NO [Example 21]"
unitofmeasurement = "%"
numericresult = 94

[[record]]
compound = "O=C(NO)c1cnc(N2CCc3[nH]c4ccc(-c5ccoc5)cc4c3C2)nc1 [Example 52]"
unitofmeasurement = "%"
numericresult = 98.9

[[record]]
compound = "O=C(NO)c1cnc(N2CCc3c(n(S(=O)(=O)c4ccccc4)c4ccccc34)C2)nc1 [Example 26]"
unitofmeasurement = "%"
numericresult = 99

[[record]]
compound = "O=C(NO)c1cnc(N2CCc3[nH]c4ccc(-c5cccc(CN6CCSCC6)c5)cc4c3C2)nc1 [Example 94]"
unitofmeasurement = "%"
numericresult = 98.5

[[record]]
compound = "O=C(NO)c1cnc(N2CCc3[nH]c4cc(-c5ccccc5)ccc4c3C2)nc1 [Example 120]"
unitofmeasurement = "%"
numericresult = 97.6

[[record]]
compound = "O=C(NO)c1cnc(N2CCc3c(n(Cc4ccccc4)c4ccccc34)C2)nc1 [Example 28]"
unitofmeasurement = "%"
numericresult = 98.7

[[record]]
compound = "COc1ccc2[nH]c3c(c2c1)CCN(c1ncc(C(=O)NO)cn1)CC3 [Example 113]"
unitofmeasurement = "%"
numericresult = 98.7

[[record]]
compound = "O=C(NO)c1cnc(N2CCc3[nH]c4ccc([N+](=O)[O-])cc4c3C2)nc1 [Example 37]"
unitofmeasurement = "%"
numericresult = 97.1

[[record]]
compound = "CN1CCN(Cc2cccc(-c3ccc4[nH]c5c(c4c3)CCN(c3ncc(C(=O)NO)cn3)CC5)c2)CC1 [Example 117]"
unitofmeasurement = "%"
numericresult = 98.6

[[record]]
compound = "O=C(NO)c1cnc(N2CCc3c(sc4ccccc34)C2)nc1 [Example 118]"
unitofmeasurement = "%"
numericresult = 98.9

[[record]]
compound = "O=C(NO)c1cnc(N2CCc3[nH]c4ccc(Br)cc4c3C2)nc1 [Example 15]"
unitofmeasurement = "%"
numericresult = 99

[[record]]
compound = "O=C(NO)c1cnc(N2CCc3c([nH]c4cc(F)ccc34)C2)nc1 [Example 62]"
unitofmeasurement = "%"
numericresult = 96.2

[[record]]
compound = "O=C(NO)c1cnc(N2CCc3c(n(CN4CCCC4)c4ccccc34)C2)nc1 [Example 30]"
unitofmeasurement = "%"
numericresult = 96.8

[[record]]
compound = "O=C(NO)c1cnc(N2CCc3[nH]c4ccc(-c5cccc(-c6nnn[nH]6)c5)cc4c3C2)nc1 [Example 84]"
unitofmeasurement = "%"
numericresult = 93.2

[[record]]
compound = "O=C(NO)c1cnc(N2CCc3c([nH]c4ccc(-c5cccc(CN6CCOCC6)c5)cc34)C2)nc1 [Example 70]"
unitofmeasurement = "%"
numericresult = 97.9

[[record]]
compound = "Nc1ccc2[nH]c3c(c2c1)CN(c1ncc(C(=O)NO)cn1)CC3 [Example 76]"
unitofmeasurement = "%"
numericresult = 98.9

[[record]]
compound = "O=C(NO)c1cnc(N2CCc3[nH]c4ccc(-c5cccc(CN6CCCCC6)c5)cc4c3C2)nc1 [Example 91]"
unitofmeasurement = "%"
numericresult = 98.6

[[record]]
compound = "CN1CCN(Cc2cccc(-c3ccc4[nH]c5c(c4c3)CN(c3ncc(C(=O)NO)cn3)CC5)c2)CC1 [Example 96]"
unitofmeasurement = "%"
numericresult = 98.7

[[record]]
compound = "COc1cc2c(cc1OC)CN(c1ncc(C(=O)NO)cn1)CC2 [Example 11]"
unitofmeasurement = "%"
numericresult = 99

[[record]]
compound = "O=C(NO)c1cnc(N2CCc3[nH]c4ccc(-c5cccnc5)cc4c3C2)nc1 [Example 47]"
unitofmeasurement = "%"
numericresult = 98.1

[[record]]
compound = "O=C(NO)c1cnc(N2CCc3[nH]c4ccc(-c5cccc(CN6CCOCC6)c5)cc4c3C2)nc1 [Example 90]"
unitofmeasurement = "%"
numericresult = 93.1

[[record]]
compound = "COc1ccc(-c2ccc3[nH]c4c(c3c2)CN(c2ncc(C(=O)NO)cn2)CC4)cc1 [Example 40]"
unitofmeasurement = "%"
numericresult = 98.3

[[record]]
compound = "O=C(NO)c1cnc(N2CCc3[nH]c4ccc(-c5ccc[nH]5)cc4c3C2)nc1 [Example 53]"
unitofmeasurement = "%"
numericresult = 96.4

[[record]]
compound = "O=C(/C=C/c1ccc(CN2CCc3c([nH]c4ccccc34)C2)s1)NO [Example 3]"
unitofmeasurement = "%"
numericresult = 98.3

[[record]]
compound = "Cc1cccc2c3c([nH]c12)CN(c1ncc(C(=O)NO)cn1)CC3 [Example 61]"
unitofmeasurement = "%"
numericresult = 98.2

[[record]]
compound = "Cc1ccc2[nH]c3c(c2c1)CCN(c1ncc(C(=O)NO)cn1)C3 [Example 68]"
unitofmeasurement = "%"
numericresult = 98.9

[[record]]
compound = "COc1ccc2[nH]c3c(c2c1)CN(c1ncc(C(=O)NO)cn1)CC3 [Example 57]"
unitofmeasurement = "%"
numericresult = 98.2

[[record]]
compound = "O=C(NO)c1cnc(N2CCc3[nH]c4ccc(-c5cccc(CN6CCC(CO)CC6)c5)cc4c3C2)nc1 [Example 93]"
unitofmeasurement = "%"
numericresult = 98

[[record]]
compound = "O=C(NO)c1cnc(N2CCc3[nH]c4ccc(Cl)cc4c3C2)nc1 [Example 14]"
unitofmeasurement = "%"
numericresult = 98.1

[[record]]
compound = "O=C(NO)c1cnc(N2CCc3c(n(CCN4CCCCC4)c4ccccc34)C2)nc1 [Example 24]"
unitofmeasurement = "%"
numericresult = 98.9

[[record]]
compound = "O=C(NO)c1cnc(N2CCc3[nH]c4ccc(-c5ccco5)cc4c3C2)nc1 [Example 46]"
unitofmeasurement = "%"
numericresult = 98.6

[[record]]
compound = "O=C(NO)c1cnc(N2CCc3[nH]c4ccc(-c5cccc(F)c5)cc4c3C2)nc1 [Example 44]"
unitofmeasurement = "%"
numericresult = 97.6

[[record]]
compound = "O=C(NO)c1cnc(N2CCc3c([nH]c4ccccc34)C2)s1 [Example 19]"
unitofmeasurement = "%"
numericresult = 97.2

[[record]]
compound = "O=C(NO)c1cnc(N2CCc3[nH]c4ccc(OC(F)(F)F)cc4c3C2)nc1 [Example 16]"
unitofmeasurement = "%"
numericresult = 99


----------
Below is a list of entries, each paired with its recorded inhibition at 100 µM value.
Test system: HCT116 cells
Experiment: Whole cell cytotoxicity assay: Sulforhodamine B
Assay type: cell-based
Details: Homo sapiens, HCT-116; 100 μM compound; 48 hours incubation with drug; Sulforhodamine B staining; read-out: % Inhibition of HCT116 cell growth @ 100 μM
outcomeMeasure: inhibition at 100 µM (%)

[[record]]
compound = "Cn1c2c(c3ccccc31)CCN(c1ncc(C(=O)NO)cn1)C2 [Example 27]"
numericresult = 98.9

[[record]]
compound = "O=C(NO)c1cnc(N2CCc3c(oc4ccccc34)C2)nc1 [Example 119]"
numericresult = 98.6

[[record]]
compound = "CS(=O)(=O)Nc1ccc2[nH]c3c(c2c1)CN(c1ncc(C(=O)NO)cn1)CC3 [Example 78]"
numericresult = 85.1

[[record]]
compound = "O=C(/C=C/c1ccc(N2CCc3c([nH]c4ccccc34)C2)cc1)NO [Example 22]"
numericresult = 98.2

[[record]]
compound = "O=C(NO)c1ccc(N2CCc3c([nH]c4ccccc34)C2)nc1 [Example 4]"
numericresult = 98.5

[[record]]
compound = "CN1CCN(Cc2ccc(-c3ccc4[nH]c5c(c4c3)CCN(c3ncc(C(=O)NO)cn3)C5)cc2)CC1 [Example 72]"
numericresult = 95.6

[[record]]
compound = "O=C(NO)c1cnc(N2CCc3[nH]c4cc(F)ccc4c3C2)nc1 [Example 35]"
numericresult = 97.3

[[record]]
compound = "CN1CCN(Cc2ccc(-c3ccc4[nH]c5c(c4c3)CN(c3ncc(C(=O)NO)cn3)CC5)s2)CC1 [Example 110]"
numericresult = 98.7

[[record]]
compound = "COc1cc2c(cc1OC)CN(c1ccc(C(=O)NO)cn1)CC2 [Example 5]"
numericresult = 99.9

[[record]]
compound = "O=C(NO)c1cnc(N2CCc3c(n(CCO)c4ccccc34)C2)nc1 [Example 58]"
numericresult = 96.3


----------
Below is a list of entries, each paired with its recorded inhibition at 100 µM value.
Test system: HCT116 cells
Assay: Whole cell cytotoxicity assay: Sulforhodamine B
Assay type: cell-based
Details: Homo sapiens, HCT-116; 100 μM compound; 48 hours incubation with drug; Sulforhodamine B staining; read-out: % Inhibition of HCT116 cell growth @ 100 μM
outcomeMeasure: inhibition at 100 µM (%)

[[record]]
compound = "CSc1cccc(-c2ccc3[nH]c4c(c3c2)CN(c2ncc(C(=O)NO)cn2)CC4)c1 [Example 49]"
outcomemeasure = "inhibition at 100 µM"
numericresult = 99.3

[[record]]
compound = "CC(=O)N1CCN(Cc2cccc(-c3ccc4[nH]c5c(c4c3)CN(c3ncc(C(=O)NO)cn3)CC5)c2)CC1 [Example 101]"
outcomemeasure = "inhibition at 100 µM"
numericresult = 97.9

[[record]]
compound = "Cc1ccc2c(c1)C1CN(c3ncc(C(=O)NO)cn3)CCC1N2 (centres unmarked) [Example 75]"
outcomemeasure = "inhibition at 100 µM"
numericresult = 98.4

[[record]]
compound = "O=C(NO)c1cnc(N2CCc3[nH]c4ccc(-c5cncnc5)cc4c3C2)nc1 [Example 51]"
outcomemeasure = "inhibition at 100 µM"
numericresult = 98.7

[[record]]
compound = "CC(=O)Nc1ccc2[nH]c3c(c2c1)CN(c1ncc(C(=O)NO)cn1)CC3 [Example 77]"
outcomemeasure = "inhibition at 100 µM"
numericresult = 98.1

[[record]]
compound = "CC(=O)Nc1cccc(-c2ccc3[nH]c4c(c3c2)CN(c2ncc(C(=O)NO)cn2)CC4)c1 [Example 87]"
outcomemeasure = "inhibition at 100 µM"
numericresult = 83.1

[[record]]
compound = "O=C(NO)c1cnc(N2CCc3[nH]c4ccc(-c5cccc(CO)c5)cc4c3C2)nc1 [Example 43]"
outcomemeasure = "inhibition at 100 µM"
numericresult = 98.7

[[record]]
compound = "CN1CCN(Cc2ccc3[nH]c4c(c3c2)CN(c2ncc(C(=O)NO)cn2)CC4)CC1 [Example 123]"
outcomemeasure = "inhibition at 100 µM"
numericresult = 97

[[record]]
compound = "CN1CCN(Cc2ccc(-c3ccc4[nH]c5c(c4c3)CN(c3ncc(C(=O)NO)cn3)CC5)cc2)CC1 [Example 106]"
outcomemeasure = "inhibition at 100 µM"
numericresult = 98.3

[[record]]
compound = "O=C(NO)c1cnc(N2CCc3[nH]c4ccccc4c(=O)c3C2)nc1 [Example 122]"
outcomemeasure = "inhibition at 100 µM"
numericresult = 44.4

[[record]]
compound = "CC(C)(C)c1ccc2[nH]c3c(c2c1)CN(c1ncc(C(=O)NO)cn1)CC3 [Example 39]"
outcomemeasure = "inhibition at 100 µM"
numericresult = 99.4

[[record]]
compound = "Cc1ccc2c3c([nH]c2c1)CCN(c1ncc(C(=O)NO)cn1)C3 [Example 36]"
outcomemeasure = "inhibition at 100 µM"
numericresult = 98.3

[[record]]
compound = "O=C(NO)c1cnc(N2CCc3[nH]c4ccc(-c5cccc(CN6CCOCC6)c5)cc4c3CC2)nc1 [Example 116]"
outcomemeasure = "inhibition at 100 µM"
numericresult = 98.6

[[record]]
compound = "O=C(NO)c1cnc(N2CCc3[nH]c4ccc(F)cc4c3C2)nc1 [Example 111]"
outcomemeasure = "inhibition at 100 µM"
numericresult = 97.7

[[record]]
compound = "O=C(NO)c1cnc(N2CCc3[nH]c4cc(Br)ccc4c3C2)nc1 [Example 112]"
outcomemeasure = "inhibition at 100 µM"
numericresult = 98.7

[[record]]
compound = "O=C(NO)c1cnc(N2CCc3[nH]c4ccc(-c5cccc(CN(CCO)CCO)c5)cc4c3C2)nc1 [Example 95]"
outcomemeasure = "inhibition at 100 µM"
numericresult = 98.2

[[record]]
compound = "O=C(NO)c1cnc(N2CCc3[nH]c4ccc(-c5ccc(CN6CCOCC6)cc5)cc4c3C2)nc1 [Example 104]"
outcomemeasure = "inhibition at 100 µM"
numericresult = 92

